Recorded values, source patent US20260070976A1.

- EXPERIMENTAL_SYSTEM: recombinant cynomolgus PILRB (cynomolgus monkey)
- EXPERIMENTAL_DETAILS: SPR, Carterra LSA, antibody amine-coupled, kinetic fit
pKd: −log10 of the molar value.
MEASURE: pKd

binder="X7 (antibody, human IgG4, V domains shown) VH: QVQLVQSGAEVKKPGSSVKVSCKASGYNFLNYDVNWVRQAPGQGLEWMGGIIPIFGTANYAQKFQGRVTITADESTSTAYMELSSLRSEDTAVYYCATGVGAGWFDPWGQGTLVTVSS VL: DIVMTQSPDSLAVSLGERATINCKSSQSVFFDENNKNYLAWYQQKPGQPPKLLIYWASTRESGVPDRFSGSGSGTDFTLTISSLQAEDVAVYYCQQYFEEPYTFGQGTRLEIK" endpoint_result=9.30
binder="X17 (antibody, human IgG4, V domains shown) VH: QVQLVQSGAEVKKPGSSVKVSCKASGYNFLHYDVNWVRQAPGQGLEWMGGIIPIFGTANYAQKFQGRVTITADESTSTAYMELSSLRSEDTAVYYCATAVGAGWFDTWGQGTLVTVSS VL: DIVMTQSPDSLAVSLGERATINCKSSQSVFFDENNKNYLAWYQQKPGQPPKLLIYWASTRESGVPDRFSGSGSGTDFTLTISSLQAEDVAVYYCQQYFEEPYTFGQGTRLEIK" endpoint_result=9.52
binder="X20 (antibody, human IgG4, V domains shown) VH: QVQLVQSGAEVKKPGSSVKVSCKASGYNFLHYDVNWVRQAPGQGLEWMGGIIPIFGTANYAQKFQGRVTITADESTSTAYMELSSLRSEDTAVYYCATAVGAGWFDPWGQGTLVTVSS VL: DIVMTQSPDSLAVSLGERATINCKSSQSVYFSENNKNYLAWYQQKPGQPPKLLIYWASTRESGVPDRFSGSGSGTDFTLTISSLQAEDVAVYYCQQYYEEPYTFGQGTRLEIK" endpoint_result=10.00
